Task for the reader: assign each of the following substances its reported amyloid nucleation score.
Assay: amyloid nucleation score (Sup35N fusion, yeast selection) (log enrichment); library NNK2; higher = more nucleation; inactive = no reads after selection;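 note: zero at mode of non-aggregating sequences after 7 days selection at 30°C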
Just the number.

stdin: State the recorded amyloid nucleation score for this entry: VTALYGSSICMSRSDY
stdout: 0.119

stdin: State the recorded amyloid nucleation score for this entry: SEMDPPYPEISHYRYQRNHW
stdout: 0.11

stdin: State the recorded amyloid nucleation score for this entry: CILGENYRIQSTDAHKGVSR
stdout: -0.205

stdin: State the recorded amyloid nucleation score for this entry: KKLYFWINAHNRELTLKTWV
stdout: 0.226

stdin: State the recorded amyloid nucleation score for this entry: AFNWIEVCEETSPGSTTEGS
stdout: 0.318

stdin: State the recorded amyloid nucleation score for this entry: YVLPLPGNLNIMEAAGRYYA
stdout: 4.04

stdin: State the recorded amyloid nucleation score for this entry: KLWTISVDHPGII
stdout: -1.45

stdin: State the recorded amyloid nucleation score for this entry: MYTSLLVYML
stdout: 3.78

stdin: State the recorded amyloid nucleation score for this entry: FCGDILSVT
stdout: 0.695

stdin: State the recorded amyloid nucleation score for this entry: CHYRMVVKRYTFEHYAFYVG
stdout: -0.782

stdin: State the recorded amyloid nucleation score for this entry: EGLLHTYCICGFLVYHYMEV
stdout: 3.77

stdin: State the recorded amyloid nucleation score for this entry: FCSHVGLVYCTYIMMRVSMR
stdout: 5.5

stdin: State the recorded amyloid nucleation score for this entry: QGLCRV
stdout: 4

stdin: State the recorded amyloid nucleation score for this entry: HLMLFDMTASLLHSHNVSRP
stdout: 5.63

stdin: State the recorded amyloid nucleation score for this entry: GPKPGDVSYVYKSCRTHNSP
stdout: 0.53

stdin: State the recorded amyloid nucleation score for this entry: VCFNWRHYATRLSDERWLRS
stdout: 1.1

stdin: State the recorded amyloid nucleation score for this entry: LLTMVHTSSIRKESGF
stdout: -0.118

stdin: State the recorded amyloid nucleation score for this entry: TCSCSLVFYMILARG
stdout: -0.053

stdin: State the recorded amyloid nucleation score for this entry: IFHSESALWRHRYMGYVMVR
stdout: -0.66

stdin: State the recorded amyloid nucleation score for this entry: YNARFSTNLTRFGVGF
stdout: -1.15

stdin: State the recorded amyloid nucleation score for this entry: CMRVRCFSILNSAFCKCEMA
stdout: -1.62

stdin: State the recorded amyloid nucleation score for this entry: SRFLDGSLLPKTNGLSQEMV
stdout: 0.122

stdin: State the recorded amyloid nucleation score for this entry: MMAIFWGFSVQRRRGSGIDL
stdout: 2.74

stdin: State the recorded amyloid nucleation score for this entry: QSLHTSANSLLNWNFMSLLT
stdout: 0.871

stdin: State the recorded amyloid nucleation score for this entry: YVLGVF
stdout: 0.045

stdin: State the recorded amyloid nucleation score for this entry: ANVWRSLFAFTIANVTIPR
stdout: 5.71

stdin: State the recorded amyloid nucleation score for this entry: LGRQWFRIARGG
stdout: 0.654

stdin: State the recorded amyloid nucleation score for this entry: VKLIGKITELGKNRMLMLWT
stdout: 0.429

stdin: State the recorded amyloid nucleation score for this entry: FIRSIHCVKMDELAWLLSVS
stdout: 0.252

stdin: State the recorded amyloid nucleation score for this entry: LIRGVII
stdout: 0.21

stdin: State the recorded amyloid nucleation score for this entry: IFVVCLGMDTVYLIGYYSPA
stdout: -1.25

stdin: State the recorded amyloid nucleation score for this entry: RMLLQGVKAVGRGNNGINTV
stdout: 0.479
